Taken from patent US20160237059A1.

Biological target: human CCR2 (Homo sapiens)
Sequence (P41597 1-360 isoform P41597-2): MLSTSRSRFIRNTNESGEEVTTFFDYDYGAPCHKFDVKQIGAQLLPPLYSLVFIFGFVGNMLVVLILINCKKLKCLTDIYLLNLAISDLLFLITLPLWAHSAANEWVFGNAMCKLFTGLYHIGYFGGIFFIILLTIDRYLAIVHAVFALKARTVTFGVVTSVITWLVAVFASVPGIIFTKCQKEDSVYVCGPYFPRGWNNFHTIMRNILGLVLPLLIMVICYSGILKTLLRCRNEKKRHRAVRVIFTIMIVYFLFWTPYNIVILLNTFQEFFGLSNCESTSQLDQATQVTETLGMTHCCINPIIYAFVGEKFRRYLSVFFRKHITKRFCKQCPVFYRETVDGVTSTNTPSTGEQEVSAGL
Test: Functional Ca2+ release test (B-1)
Conditions: Chem-1 cell line transfected with human CCR2; 50% inhibition of the MCP-1 effect, MCP-1 at EC50 (about 5 nM); in some cases means of several determinations
pIC50 for assorted molecules
Entry type: numeric. Quantity: pIC50, the -log10 of concentration in molar units.

[Q] // Input: `O=c1[nH]c(-c2ncccc2Cl)nc(C(F)(F)F)c1Cc1ccc(Cl)c(C(F)(F)F)c1` . Output its pIC50 only.
[A] 8.82

[Q] // Input: `Nc1cnn(-c2nc(C(F)(F)F)c(Oc3ccc(Cl)c(Cl)c3)c(=O)[nH]2)c1` . Output its pIC50 only.
[A] 9.00

[Q] // Input: `Cc1cc(-c2nc(C(F)(F)F)c(Oc3ccc(Cl)c(Cl)c3)c(=O)[nH]2)nn1C` . Output its pIC50 only.
[A] 8.55

[Q] // Input: `CC(C)c1nc(-c2nc(C(F)(F)F)c(Oc3ccc(Cl)c(Cl)c3)c(=O)[nH]2)no1` . Output its pIC50 only.
[A] 7.49

[Q] // Input: `O=c1[nH]c(-c2ncccc2Cl)nc(C(F)(F)F)c1Oc1ccc(Cl)cc1` . Output its pIC50 only.
[A] 8.52

[Q] // Input: `O=c1[nH]c(-c2cccnc2)nc(C(F)(F)F)c1Oc1ccc(Cl)c(C(F)(F)F)c1` . Output its pIC50 only.
[A] 7.80

[Q] // Input: `COc1cc(OC)nc(-c2nc(C(F)(F)F)c(Oc3ccc(Cl)c(Cl)c3)c(=O)[nH]2)n1` . Output its pIC50 only.
[A] 9.15

[Q] // Input: `CC(C)(C)Oc1ccnc(-c2nc(C(F)(F)F)c(Oc3ccc(Cl)c(C(F)(F)F)c3)c(=O)[nH]2)c1` . Output its pIC50 only.
[A] 7.21

[Q] // Input: `O=c1[nH]c(N2CCCC2)nc(C(F)(F)F)c1Cc1ccc(Cl)c(Cl)c1` . Output its pIC50 only.
[A] 6.44

[Q] // Input: `CN(C)c1ccc(-c2nc(C(F)(F)F)c(Oc3ccc(Cl)c(C(F)(F)F)c3)c(=O)[nH]2)nn1` . Output its pIC50 only.
[A] 9.15
